target: human TfR1 (Homo sapiens); experiment: biochemical; format: binding; parameters: His6-tagged TfR1 (a.a. 89-760) (ACRO Biosystems, CD1-H5243 and TFR-C524a); His6; purchased R&D Systems or Acro Biosystems 2474-TR or CD1-H5243; conditions: Human TfR1 Ki (nM)
Sequence (P02786 89-760): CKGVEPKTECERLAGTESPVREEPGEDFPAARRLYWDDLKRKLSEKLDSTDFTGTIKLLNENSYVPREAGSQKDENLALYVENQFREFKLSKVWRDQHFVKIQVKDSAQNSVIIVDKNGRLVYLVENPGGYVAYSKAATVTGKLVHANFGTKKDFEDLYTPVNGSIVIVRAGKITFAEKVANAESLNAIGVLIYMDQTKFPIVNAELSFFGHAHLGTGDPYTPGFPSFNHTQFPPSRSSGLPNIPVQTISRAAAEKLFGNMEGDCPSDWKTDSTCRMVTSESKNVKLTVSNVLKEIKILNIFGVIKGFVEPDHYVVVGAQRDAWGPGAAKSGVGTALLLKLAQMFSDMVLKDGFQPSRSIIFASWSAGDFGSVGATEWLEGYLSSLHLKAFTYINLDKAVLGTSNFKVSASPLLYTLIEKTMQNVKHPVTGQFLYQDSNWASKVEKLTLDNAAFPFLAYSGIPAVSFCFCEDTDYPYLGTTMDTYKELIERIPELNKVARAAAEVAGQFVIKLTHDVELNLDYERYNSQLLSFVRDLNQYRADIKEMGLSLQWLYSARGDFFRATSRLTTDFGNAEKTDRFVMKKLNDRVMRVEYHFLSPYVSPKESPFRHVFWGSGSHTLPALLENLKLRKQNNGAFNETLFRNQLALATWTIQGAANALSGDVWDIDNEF
recorded.endpoint: Ki
# answer = value followed by unit

Q. Output measured Ki for this item: CC[C@H](C)[C@@H]1NC(=O)[C@@H]2CSCC(=O)N3CN(CN(C3)C(=O)CSC[C@@H](C(=O)N[C@@H](CCC(=O)O)C(=O)N3CCCC[C@H]3C(=O)N[C@@H](Cc3c[nH]c4ccccc34)C(N)=O)NC(=O)[C@H](Cc3ccc(O)cc3)NC(=O)[C@H](CO)NC1=O)C(=O)CSC[C@H](NC(C)=O)C(=O)N[C@@H](CO)C(=O)N1CCC[C@H]1C(=O)N[C@@H](CC(=O)O)C(=O)N[C@@H](C)C(=O)N[C@@H](Cc1c[nH]cn1)C(=O)N[C@@H](CC(C)C)C(=O)NCC(=O)N2 [BCY18039, Ac-(SEQ ID NO: 9)-E[Pip]W]
A. 8 nM
